Assay: Nephrotoxicity assay: in vitro cytotoxicity of HK-2 cells by CCK-8 assay
Assay type: cell-based
Conditions: human, HK-2 cells (human renal), 72 h incubation with drug-containing medium
Bridge positions count the residues as written; N and C are the ends. Square brackets hold non-standard residues; d marks the D form. Peptide text beside a SMILES is read from it. * marks the point of attachment. Heptanoyl(6-Me) = CC(C)CCCCC(=O)*; Sulfomethyl = O=S(=O)(O)C*; dDab = NCC[C@@H](N)C(=O)O; Heptanoyl = CCCCCCC(=O)*; Orn = NCCC[C@H](N)C(=O)O; Dab = NCC[C@H](N)C(=O)O
Recorded endpoint: IC50 at 72 h

Illustrative cases are given below, each with its answer.
* CCCCCCC(=O)N[C@@H](CCN)C(=O)N[C@H](C(=O)N[C@H](CCN)C(=O)N[C@H]1CCNC(=O)[C@H]([C@@H](C)O)NC(=O)[C@H](CCN)NC(=O)[C@H](CCN)NC(=O)[C@H]([C@@H](C)O)NC(=O)[C@@H](Cc2ccccc2)NC(=O)[C@H](CCN)NC1=O)[C@@H](C)O [Compound 14] (Heptanoyl-[Dab]T[dDab][Dab][Dab][dF]T[Dab][Dab]T; lactam 4-C) | > 500 µg/mL
* CCCCCCC(=O)N[C@@H](CCN)C(=O)N[C@H](C(=O)N[C@H](CO)C(=O)N[C@H]1CCNC(=O)[C@H]([C@@H](C)O)NC(=O)[C@H](CCCN)NC(=O)[C@H](CCN)NC(=O)[C@H]([C@@H](C)O)NC(=O)[C@@H](Cc2ccccc2)NC(=O)[C@H](CCN)NC1=O)[C@@H](C)O [Compound 89] (Heptanoyl-[Dab]T[dS][Dab][Dab][dF]T[Dab][Orn]T; lactam 4-C) | > 500 µg/mL

Please examine the following record next.
IC50 at 72 h lookup needed for CC(C)CCCCC(=O)N[C@@H](CCN)C(=O)N[C@H](C(=O)N[C@H](CO)C(=O)N[C@H]1CCNC(=O)[C@H]([C@@H](C)OCS(=O)(=O)O)NC(=O)[C@H](CCN)NC(=O)[C@H](CCN)NC(=O)[C@H]([C@@H](C)O)NC(=O)[C@@H](Cc2ccccc2)NC(=O)[C@H](CCN)NC1=O)[C@@H](C)O [Compound 106] ({Heptanoyl(6-Me)}-[Dab]T[dS][Dab][Dab][dF]T[Dab][Dab]T(Sulfomethyl); lactam 4-C) , thanks.
> 500 µg/mL

* * *

Tested on: Pseudomonas aeruginosa ATCC 27853
Type: cell-based
Details: ATCC 27853
Bridge positions count the residues as written; N and C are the ends. Square brackets hold non-standard residues; d marks the D form. Peptide text beside a SMILES is read from it. * marks the point of attachment. Heptanoyl(6-Me) = CC(C)CCCCC(=O)*; dOrn = NCCC[C@@H](N)C(=O)O; Nonanoyl = CCCCCCCCC(=O)*; X1 = CC[C@H](C)CCCCC(=O)*; Octanoyl = CCCCCCCC(=O)*; Orn = NCCC[C@H](N)C(=O)O; dDap = NC[C@@H](N)C(=O)O; Dab = NCC[C@H](N)C(=O)O
Property: MIC; scope: individual molecules
Quick note: give the figure in µg/mL, leave out the unit.

Known results for molecules:
- CCCCCCCCC(=O)N[C@@H](CCN)C(=O)N[C@H](C(=O)N[C@@H](CCCN)C(=O)N[C@H]1CCNC(=O)[C@H]([C@@H](C)O)NC(=O)[C@H](CCN)NC(=O)[C@H](CCN)NC(=O)[C@H]([C@@H](C)O)NC(=O)[C@@H](Cc2ccccc2)NC(=O)[C@H](CCN)NC1=O)[C@@H](C)O [Compound 30] (Nonanoyl-[Dab]T[Orn][Dab][Dab][dF]T[Dab][Dab]T; lactam 4-C): 0.03
- CC(C)CCCCC(=O)N[C@@H](CCN)C(=O)N[C@H](C(=O)N[C@H](CN)C(=O)N[C@H]1CCNC(=O)[C@H]([C@@H](C)O)NC(=O)[C@H](CCN)NC(=O)[C@H](CCN)NC(=O)[C@H](CC(C)C)NC(=O)[C@@H](Cc2ccccc2)NC(=O)[C@H](CCN)NC1=O)[C@@H](C)O [Compound 32] ({Heptanoyl(6-Me)}-[Dab]T[dDap][Dab][Dab][dF]L[Dab][Dab]T; lactam 4-C): 0.03
- CCCCCCCC(=O)N[C@@H](CCN)C(=O)N[C@H](C(=O)N[C@H](CN)C(=O)N[C@H]1CCNC(=O)[C@H]([C@@H](C)O)NC(=O)[C@H](CCN)NC(=O)[C@H](CCN)NC(=O)[C@H]([C@@H](C)O)NC(=O)[C@@H](Cc2ccccc2)NC(=O)[C@H](CCN)NC1=O)[C@@H](C)O [Compound 3] (Octanoyl-[Dab]T[dDap][Dab][Dab][dF]T[Dab][Dab]T; lactam 4-C): 0.03
- CC[C@H](C)CCCCC(=O)N[C@@H](CCCN)C(=O)N[C@H](C(=O)N[C@H](CO)C(=O)N[C@H]1CCNC(=O)[C@H]([C@@H](C)O)NC(=O)[C@H](CCN)NC(=O)[C@H](CCN)NC(=O)[C@H]([C@@H](C)O)NC(=O)[C@@H](Cc2ccccc2)NC(=O)[C@H](CCN)NC1=O)[C@@H](C)O [Compound 56] (X1-[Orn]T[dS][Dab][Dab][dF]T[Dab][Dab]T; lactam 4-C): 64

# ---- query molecule ----
Record request: MIC value, item CC(C)CCCCC(=O)N[C@@H](CCN)C(=O)N[C@H](C(=O)N[C@H](CCCN)C(=O)N[C@H]1CCNC(=O)[C@H]([C@@H](C)O)NC(=O)[C@H](CCN)NC(=O)[C@H](CCN)NC(=O)[C@H]([C@@H](C)O)NC(=O)[C@@H](Cc2ccccc2)NC(=O)[C@H](CCN)NC1=O)[C@@H](C)O [Compound 22] ({Heptanoyl(6-Me)}-[Dab]T[dOrn][Dab][Dab][dF]T[Dab][Dab]T; lactam 4-C)
0.25

* * *

Test: Nephrotoxicity assay: in vitro cytotoxicity of HK-2 cells by CCK-8 assay
Format: cell-based
Details: human, HK-2 cells (human renal), 72 h incubation with drug-containing medium
Bridge positions count the residues as written; N and C are the ends. Square brackets hold non-standard residues; d marks the D form. Peptide text beside a SMILES is read from it. * marks the point of attachment. Heptanoyl(6-Me) = CC(C)CCCCC(=O)*; dDab = NCC[C@@H](N)C(=O)O; Octanoyl = CCCCCCCC(=O)*; Dab = NCC[C@H](N)C(=O)O; Dap = NC[C@H](N)C(=O)O
Listed molecules paired with reported IC50 at 72 h
Unit µg/mL implied. Number only.

• CC(C)CCCCC(=O)N[C@@H](CN)C(=O)N[C@H](C(=O)N[C@H](CCN)C(=O)N[C@H]1CCNC(=O)[C@H]([C@@H](C)O)NC(=O)[C@H](CCN)NC(=O)[C@H](CCN)NC(=O)[C@H](CC(C)C)NC(=O)[C@@H](CC(C)C)NC(=O)[C@H](CCN)NC1=O)[C@@H](C)O [Compound 97] ({Heptanoyl(6-Me)}-[Dap]T[dDab][Dab][Dab][dL]L[Dab][Dab]T; lactam 4-C) = 217

Shifting focus to the molecule that follows.
So what does the record say about IC50 at 72 h for CCCCCCCC(=O)N[C@@H](CN)C(=O)N[C@H](C(=O)N[C@H](CCN)C(=O)N[C@H]1CCNC(=O)[C@H]([C@@H](C)O)NC(=O)[C@H](CCN)NC(=O)[C@H](CCN)NC(=O)[C@H](CC(C)C)NC(=O)[C@@H](Cc2ccccc2)NC(=O)[C@H](CCN)NC1=O)[C@@H](C)O [Compound 93] (Octanoyl-[Dap]T[dDab][Dab][Dab][dF]L[Dab][Dab]T; lactam 4-C) ?
239

* * *

System: Pseudomonas aeruginosa PAE19-3
Format: cell-based
Conditions: PAE19-3
Numbered stars: 1 amine (or outer) side, 2 acyl side, 3 side chain; on linkers, the order of the positions; unused ones are H or OH. Bridge positions count the residues as written; N and C are the ends. Square brackets hold non-standard residues; d marks the D form. Peptide text beside a SMILES is read from it. * marks the point of attachment. X3 = O=C([C@@H](Cc1ccc(CS(=O)(=O)O)cc1)N[*:1])[*:2]; Heptanoyl(6-Me) = CC(C)CCCCC(=O)*; Nonanoyl = CCCCCCCCC(=O)*; Orn = NCCC[C@H](N)C(=O)O; Dab = NCC[C@H](N)C(=O)O; Dap = NC[C@H](N)C(=O)O
MIC by entry:
Note to self: number, then unit, no commentary.

- CC(C)CCCCC(=O)N[C@@H](CCN)C(=O)N[C@H](C(=O)N[C@@H](CN)C(=O)N[C@H]1CCNC(=O)[C@H]([C@@H](C)O)NC(=O)[C@H](CCN)NC(=O)[C@H](CCN)NC(=O)[C@H]([C@@H](C)O)NC(=O)[C@@H](Cc2ccc(CS(=O)(=O)O)cc2)NC(=O)[C@H](CCN)NC1=O)[C@@H](C)O [Compound 116] ({Heptanoyl(6-Me)}-[Dab]T[Dap][Dab][Dab][X3]T[Dab][Dab]T; lactam 4-C): 0.25 µg/mL

Value lookup for MIC; key = CCCCCCCCC(=O)N[C@@H](CCCN)C(=O)N[C@H](C(=O)N[C@H](CO)C(=O)N[C@H]1CCNC(=O)[C@H]([C@@H](C)O)NC(=O)[C@H](CCN)NC(=O)[C@H](CCN)NC(=O)[C@H]([C@@H](C)O)NC(=O)[C@@H](Cc2ccccc2)NC(=O)[C@H](CCN)NC1=O)[C@@H](C)O [Compound 60] (Nonanoyl-[Orn]T[dS][Dab][Dab][dF]T[Dab][Dab]T; lactam 4-C)
8 µg/mL
